Experiment: Determination of solubility in conventional solvents, visual inspection method
Type: physicochemical
Settings: water, thermodynamic from solid; 25° C.; read-out: solubility in water
property-measured: Solubility

(Q) Value lookup for Solubility; key = Cc1[nH]c(/C=C2\C(=O)Nc3ccc(F)cc32)c(C)c1C(=O)N[C@H]1CCN(C(=O)N(C)C)C1 [crystalline form 1]
(A) < 1000 µg/mL

---

Assay: Stability of the crystalline forms (HPLC, XRD, DSC)
Assay type: physicochemical
Conditions: sealed, 80° C./24 h; retention time (min) in brackets
# HPLC Maximum single impurity % per record follows

Check out these entries, answers already filled in.
>>> readout_value("Cc1[nH]c(/C=C2\\C(=O)Nc3ccc(F)cc32)c(C)c1C(=O)N[C@H]1CCN(C(=O)N(C)C)C1 [crystalline form 2]")
"0.96 (4.73) %"
>>> readout_value("Cc1[nH]c(/C=C2\\C(=O)Nc3ccc(F)cc32)c(C)c1C(=O)N[C@H]1CCN(C(=O)N(C)C)C1 [crystalline form 3]")
"1.58 (4.73) %"
>>> readout_value("Cc1[nH]c(/C=C2\\C(=O)Nc3ccc(F)cc32)c(C)c1C(=O)N[C@H]1CCN(C(=O)N(C)C)C1 [crystalline form 6]")
"0.78 (4.73) %"
>>> readout_value("Cc1[nH]c(/C=C2\\C(=O)Nc3ccc(F)cc32)c(C)c1C(=O)N[C@H]1CCN(C(=O)N(C)C)C1 [crystalline form 1]")
"1.03 (4.73) %"

(Q) Value lookup for HPLC Maximum single impurity %; key = Cc1[nH]c(/C=C2\C(=O)Nc3ccc(F)cc32)c(C)c1C(=O)N[C@H]1CCN(C(=O)N(C)C)C1 [crystalline form 7]
(A) 1.19 (4.73) %

(Q) Quick one: Cc1[nH]c(/C=C2\C(=O)Nc3ccc(F)cc32)c(C)c1C(=O)N[C@H]1CCN(C(=O)N(C)C)C1 [crystalline form 5]
(A) 1.10 (4.73) %

---

Test: Determination of solubility in conventional solvents, visual inspection method
Type: physicochemical
Conditions: acetonitrile, organic solvent or mixture, thermodynamic from solid; 25° C.; read-out: solubility in acetonitrile
property-measured: Solubility

(Q) Value lookup for Solubility; key = Cc1[nH]c(/C=C2\C(=O)Nc3ccc(F)cc32)c(C)c1C(=O)N[C@H]1CCN(C(=O)N(C)C)C1 [crystalline form 1]
(A) < 1000 µg/mL

---

Assay: Solubility determination in water by HPLC
Type: physicochemical
Conditions: suspension in water, 25° C., 4 hours
# concentration (solubility in water) per record follows
Report as a plain number; the unit µg/mL is understood.

Check out these entries, answers already filled in.
>>> readout_value("Cc1[nH]c(/C=C2\\C(=O)Nc3ccc(F)cc32)c(C)c1C(=O)N[C@H]1CCN(C(=O)N(C)C)C1 [crystalline form 7]")
0.61
>>> readout_value("Cc1[nH]c(/C=C2\\C(=O)Nc3ccc(F)cc32)c(C)c1C(=O)N[C@H]1CCN(C(=O)N(C)C)C1 [crystalline form 1]")
1.32

(Q) Value lookup for concentration (solubility in water); key = Cc1[nH]c(/C=C2\C(=O)Nc3ccc(F)cc32)c(C)c1C(=O)N[C@H]1CCN(C(=O)N(C)C)C1 [crystalline form 3]
(A) 0.77

---

Experiment: Determination of solubility in conventional solvents, visual inspection method
Assay type: physicochemical
Settings: ethanol, organic solvent or mixture, thermodynamic from solid; 25° C.; read-out: solubility in ethanol
property-measured: Solubility

(Q) Value lookup for Solubility; key = Cc1[nH]c(/C=C2\C(=O)Nc3ccc(F)cc32)c(C)c1C(=O)N[C@H]1CCN(C(=O)N(C)C)C1 [crystalline form 1]
(A) 1000 to 2500 µg/mL

---

Experiment: Determination of solubility in conventional solvents, visual inspection method
Type: physicochemical
Details: n-heptane, organic solvent or mixture, thermodynamic from solid; 25° C.; read-out: solubility in n-heptane
property-measured: Solubility

(Q) Value lookup for Solubility; key = Cc1[nH]c(/C=C2\C(=O)Nc3ccc(F)cc32)c(C)c1C(=O)N[C@H]1CCN(C(=O)N(C)C)C1 [crystalline form 1]
(A) < 1000 µg/mL

---

Assay: Solubility of crystalline forms 1 and 2 in various media
Type: physicochemical
Settings: PEG 400, organic solvent or mixture, thermodynamic from solid, PEG 400; read-out: Solubility
property-measured: Solubility (µg/mL)
Report as a plain number; the unit µg/mL is understood.

(Q) Value lookup for Solubility; key = Cc1[nH]c(/C=C2\C(=O)Nc3ccc(F)cc32)c(C)c1C(=O)N[C@H]1CCN(C(=O)N(C)C)C1 [crystalline form 2]
(A) 2670

---

Assay: Determination of solubility in conventional solvents, visual inspection method
Format: physicochemical
Conditions: toluene, organic solvent or mixture, thermodynamic from solid; 25° C.; read-out: solubility in toluene
property-measured: Solubility

(Q) Value lookup for Solubility; key = Cc1[nH]c(/C=C2\C(=O)Nc3ccc(F)cc32)c(C)c1C(=O)N[C@H]1CCN(C(=O)N(C)C)C1 [crystalline form 1]
(A) < 1000 µg/mL

---

Experiment: Stability of the crystalline forms (HPLC, XRD, DSC)
Assay type: physicochemical
Conditions: sealed, 80° C./24 h
# HPLC Purity % per record follows
Report as a plain number; the unit % is understood.

>>> readout_value("Cc1[nH]c(/C=C2\\C(=O)Nc3ccc(F)cc32)c(C)c1C(=O)N[C@H]1CCN(C(=O)N(C)C)C1 [crystalline form 7]")
98.70

(Q) Value lookup for HPLC Purity %; key = Cc1[nH]c(/C=C2\C(=O)Nc3ccc(F)cc32)c(C)c1C(=O)N[C@H]1CCN(C(=O)N(C)C)C1 [crystalline form 1]
(A) 98.87

(Q) Quick one: Cc1[nH]c(/C=C2\C(=O)Nc3ccc(F)cc32)c(C)c1C(=O)N[C@H]1CCN(C(=O)N(C)C)C1 [crystalline form 5]
(A) 98.80

(Q) Quick one: Cc1[nH]c(/C=C2\C(=O)Nc3ccc(F)cc32)c(C)c1C(=O)N[C@H]1CCN(C(=O)N(C)C)C1 [crystalline form 2]
(A) 98.95

(Q) Quick one: Cc1[nH]c(/C=C2\C(=O)Nc3ccc(F)cc32)c(C)c1C(=O)N[C@H]1CCN(C(=O)N(C)C)C1 [crystalline form 6]
(A) 99.12

(Q) Quick one: Cc1[nH]c(/C=C2\C(=O)Nc3ccc(F)cc32)c(C)c1C(=O)N[C@H]1CCN(C(=O)N(C)C)C1 [crystalline form 3]
(A) 98.32

---

Test: Pharmacokinetic experiment, oral administration
Assay type: in vivo, Sprague Dawley rats
Conditions: female, Sprague Dawley, rat, plasma, po, 10 mg/kg, suspension in 0.5% CMC, female 1, read-out: AUC(0-t)
property-measured: AUC(0-t)
Give the number first and the unit second.

(Q) Value lookup for AUC(0-t); key = Cc1[nH]c(/C=C2\C(=O)Nc3ccc(F)cc32)c(C)c1C(=O)N[C@H]1CCN(C(=O)N(C)C)C1 [crystalline form 2]
(A) 4340 ng·h/mL

---

Assay: Solubility of crystalline forms 1 and 2 in various media
Type: physicochemical
Conditions: artificial gastric juice, simulated gastric fluid, thermodynamic from solid, second line of this heading (Table 21 r21)
property-measured: solubility at 4 h (µg/mL)
Report as a plain number; the unit µg/mL is understood.

(Q) Value lookup for solubility at 4 h; key = Cc1[nH]c(/C=C2\C(=O)Nc3ccc(F)cc32)c(C)c1C(=O)N[C@H]1CCN(C(=O)N(C)C)C1 [crystalline form 1]
(A) 0.43

---

Assay: Stability of the crystalline forms (HPLC, XRD, DSC)
Assay type: physicochemical
Conditions: 0 day (starting sample); retention time (min) in brackets
# HPLC Maximum single impurity % per record follows

>>> readout_value("Cc1[nH]c(/C=C2\\C(=O)Nc3ccc(F)cc32)c(C)c1C(=O)N[C@H]1CCN(C(=O)N(C)C)C1 [crystalline form 1]")
"0.22 (4.73) %"
>>> readout_value("Cc1[nH]c(/C=C2\\C(=O)Nc3ccc(F)cc32)c(C)c1C(=O)N[C@H]1CCN(C(=O)N(C)C)C1 [crystalline form 7]")
"0.58 (4.73) %"
>>> readout_value("Cc1[nH]c(/C=C2\\C(=O)Nc3ccc(F)cc32)c(C)c1C(=O)N[C@H]1CCN(C(=O)N(C)C)C1 [crystalline form 6]")
"0.80 (4.73) %"
>>> readout_value("Cc1[nH]c(/C=C2\\C(=O)Nc3ccc(F)cc32)c(C)c1C(=O)N[C@H]1CCN(C(=O)N(C)C)C1 [crystalline form 5]")
"0.05 (8.82) %"
>>> readout_value("Cc1[nH]c(/C=C2\\C(=O)Nc3ccc(F)cc32)c(C)c1C(=O)N[C@H]1CCN(C(=O)N(C)C)C1 [crystalline form 2]")
"2.15 (4.73) %"

In the following, a different molecule is considered.
(Q) Value lookup for HPLC Maximum single impurity %; key = Cc1[nH]c(/C=C2\C(=O)Nc3ccc(F)cc32)c(C)c1C(=O)N[C@H]1CCN(C(=O)N(C)C)C1 [crystalline form 3]
(A) 0.76 (4.73) %

Cited source for all entries: patent US12209080B2
